Consider the following variants and their measured protein stability index readings.
B1: FCHO1 (parent)
chain: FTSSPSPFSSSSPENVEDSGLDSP

Variants of: B1
Assay: protein stability index of a GFP-peptide fusion (GPS, HEK-293T) (PSI 1-6); higher = more stable;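 also: lentivirally expressed fusions sorted by FACS into six bins by GFP to DsRed ratio, PSI derived from sequencing read proportions per bin multiplied by bin number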
Details: c terminus: a fixed tail appended
Note: the reply should be a number with no unit written.

FTSSPSPFSSSWPENVEDSGLDSP [S12W]	1.98
FTSSPSPFSSSSPENVEDSGKDSP [L21K]	2.02

Kindly review the next variant as well.
The value of protein stability index measured for the variant FTSSPSPFSSSSPENVEDSGVDSP [L21V] turned out to be 2.01
